- TARGET OR SYSTEM: Aldo-keto reductase family 1 member C4 (Homo sapiens)
- Sequence (P17516 whole entry): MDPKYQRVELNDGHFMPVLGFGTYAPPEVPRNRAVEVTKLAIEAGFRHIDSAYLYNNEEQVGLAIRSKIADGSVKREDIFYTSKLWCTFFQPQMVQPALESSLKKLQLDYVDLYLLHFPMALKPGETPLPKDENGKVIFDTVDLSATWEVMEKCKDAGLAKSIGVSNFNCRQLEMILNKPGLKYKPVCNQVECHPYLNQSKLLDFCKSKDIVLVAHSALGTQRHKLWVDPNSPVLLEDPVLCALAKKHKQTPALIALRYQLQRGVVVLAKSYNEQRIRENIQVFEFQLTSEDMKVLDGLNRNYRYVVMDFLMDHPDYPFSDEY
- TEST DETAILS: Inhibition of AKR1C4 (unknown origin) in human HEK293T cells assessed as turnover of coumberone to coumberol by live cell coumberone reduction assay
OUTCOME MEASURE: IC50 (µM)
Respond numerically; units are µM and should not be typed.

Exam item: Give me measured IC50, please, for this molecule: COc1ccccc1N1CCN(C(=O)c2ccc(S(=O)(=O)n3cnc(C4CCCCC4)n3)cc2)CC1
Marked response: 6
